Assign pKd to each entry below.
- system-tested: RAF kinases (Homo sapiens, UniProt P04049)
- Sequence (P04049 whole entry): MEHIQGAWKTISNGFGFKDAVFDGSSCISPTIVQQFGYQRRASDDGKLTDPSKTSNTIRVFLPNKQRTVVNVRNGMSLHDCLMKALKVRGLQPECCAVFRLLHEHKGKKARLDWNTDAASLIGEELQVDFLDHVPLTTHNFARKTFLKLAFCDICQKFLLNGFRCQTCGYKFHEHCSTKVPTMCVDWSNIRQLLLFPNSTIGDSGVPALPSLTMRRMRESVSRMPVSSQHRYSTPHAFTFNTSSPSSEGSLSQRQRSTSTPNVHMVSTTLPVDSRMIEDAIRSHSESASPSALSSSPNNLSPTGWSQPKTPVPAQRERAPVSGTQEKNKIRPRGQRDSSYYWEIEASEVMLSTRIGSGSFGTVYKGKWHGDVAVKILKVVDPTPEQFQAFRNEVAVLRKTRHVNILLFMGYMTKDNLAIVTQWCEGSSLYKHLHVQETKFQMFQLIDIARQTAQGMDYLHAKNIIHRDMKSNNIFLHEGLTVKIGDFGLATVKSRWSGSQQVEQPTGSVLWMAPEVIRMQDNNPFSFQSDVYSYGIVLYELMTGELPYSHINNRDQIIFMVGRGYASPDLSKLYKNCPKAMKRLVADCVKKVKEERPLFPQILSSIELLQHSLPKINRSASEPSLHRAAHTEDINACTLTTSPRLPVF
- cond: read-out: RAF1 Kd; RAF1
pKd: −log10 of the molar value.

Ask: Quick check: pKd of COc1cc2ncnc(Sc3cccc(NC(=O)Nc4cc(C(C)(C)C)nn4-c4ccc(C)cc4)c3)c2cc1OC [Ex 275] ?
Reply: < 6.00

Ask: Quick check: pKd of COc1cc2ncnc(Oc3cccc(NC(=O)Nc4cc(C(C)(C)C)nn4-c4ccccn4)c3)c2cc1OC [Ex 344] ?
Reply: < 6.00

Ask: Quick check: pKd of COc1cc2ncnc(Oc3ccc(F)c(NC(=O)Nc4cc(C(C)(C)C)nn4-c4ccccc4)c3)c2cc1OC [Ex 368] ?
Reply: < 6.00

Ask: Quick check: pKd of CCOc1cc2c(Sc3cccc(NC(=O)Nc4cc(C(C)(CF)CF)on4)c3)ncnc2cc1OC [Ex 395] ?
Reply: > 6.60

Ask: Quick check: pKd of COc1cc2ncnc(Sc3cccc(NC(=O)Nc4cc(C(C)(C)C(F)(F)F)no4)c3)c2cc1OC [Ex 268] ?
Reply: > 6.60

Ask: Quick check: pKd of COCCOc1cc2ncnc(Sc3cccc(NC(=O)Nc4cc(C5CCCC5)on4)c3)c2cc1OC [Ex 235] ?
Reply: > 6.60

Ask: Quick check: pKd of COc1cc2ncnc(Sc3cccc(NC(=O)Nc4cc(C(C)(C)C)nn4-c4ccccc4Cl)c3)c2cc1OC [Ex 341] ?
Reply: < 6.00

Ask: Quick check: pKd of COc1cc2ncnc(Oc3ccc(Cl)c(NC(=O)Nc4cc(C(C)(C)C)nn4-c4ccccc4)c3)c2cc1OC [Ex 301] ?
Reply: < 6.00

Ask: Quick check: pKd of COc1cc2ncnc(Oc3cccc(NC(=O)Nc4cc(C(C)(C)C)on4)c3C)c2cc1OC [Ex290] ?
Reply: > 6.60

Ask: Quick check: pKd of COc1cc2ncnc(Sc3cccc(NC(=O)Nc4cc(C(C)(C)C)nn4-c4ccccc4F)c3)c2cc1OC [Ex 371] ?
Reply: < 6.00

Ask: Quick check: pKd of COc1cc2ncnc(Oc3cccc(NC(=O)Nc4cc(C(C)(C)C)nn4-c4ccc(C)cc4C)c3)c2cc1OC [Ex 282] ?
Reply: < 6.00

Ask: Quick check: pKd of COc1cc2ncnc(Oc3cccc(NC(=O)Nc4cc(C(C)(C)C)nn4-c4ccc(C(C)(C)C)cc4)c3)c2cc1OC [Ex 369] ?
Reply: < 6.00

Ask: Quick check: pKd of COc1cc2c(Oc3cccc(NC(=O)Nc4cc(C(C)(C)C)on4)c3)ncnc2cc1OCCCN1CCS(=O)(=O)CC1 [Ex 256] ?
Reply: > 6.60

Ask: Quick check: pKd of COc1cc2c(Oc3cccc(NC(=O)Nc4cc(C(C)(C)F)no4)c3)ncnc2cc1O [Ex 257] ?
Reply: > 6.60

Ask: Quick check: pKd of COc1cc2ncnc(Oc3ccc(F)c(NC(=O)Nc4cc(C(C)(C)C)on4)c3)c2cc1OC [Ex 367] ?
Reply: > 6.60

Ask: Quick check: pKd of COc1cc2ncnc(Oc3ccc(Cl)c(NC(=O)Nc4cc(C(C)(C)C)nn4-c4ccc(C)cc4)c3)c2cc1OC [Ex 298] ?
Reply: < 6.00

---

- system-tested: RAF kinases (Homo sapiens, UniProt P15056)
- Sequence (P15056 whole entry): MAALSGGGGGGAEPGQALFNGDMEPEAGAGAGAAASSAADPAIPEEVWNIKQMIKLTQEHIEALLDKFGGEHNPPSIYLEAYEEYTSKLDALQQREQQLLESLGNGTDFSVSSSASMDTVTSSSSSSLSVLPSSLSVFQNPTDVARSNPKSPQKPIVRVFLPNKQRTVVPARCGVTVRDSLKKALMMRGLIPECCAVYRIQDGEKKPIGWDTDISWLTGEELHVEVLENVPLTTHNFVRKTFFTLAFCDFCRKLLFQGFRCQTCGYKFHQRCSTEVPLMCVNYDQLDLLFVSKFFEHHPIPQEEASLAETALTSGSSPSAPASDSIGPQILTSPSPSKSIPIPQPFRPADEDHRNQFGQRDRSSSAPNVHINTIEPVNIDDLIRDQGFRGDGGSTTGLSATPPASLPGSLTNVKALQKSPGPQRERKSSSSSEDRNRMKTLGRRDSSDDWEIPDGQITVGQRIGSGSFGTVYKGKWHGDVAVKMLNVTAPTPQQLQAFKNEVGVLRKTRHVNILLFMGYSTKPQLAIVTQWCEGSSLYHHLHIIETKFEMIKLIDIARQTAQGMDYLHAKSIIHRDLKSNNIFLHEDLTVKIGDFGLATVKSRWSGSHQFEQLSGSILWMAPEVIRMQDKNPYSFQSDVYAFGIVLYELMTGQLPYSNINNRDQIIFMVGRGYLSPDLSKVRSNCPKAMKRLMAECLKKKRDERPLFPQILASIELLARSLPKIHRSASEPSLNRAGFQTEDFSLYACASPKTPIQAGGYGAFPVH
- cond: read-out: BRAF WT Kd; BRAF WT
Assign Kd to each entry below.

Ask: Quick check: Kd of COc1cc2ncnc(Oc3cccc(NC(=O)Nc4cc(C(C)(C)C)nn4-c4ccccc4C)c3)c2cc1OC [Ex 342] ?
Reply: > 1000 nM

Ask: Quick check: Kd of COCCOc1cc2ncnc(Oc3cccc(NC(=O)Nc4cc(C(F)(F)F)nn4-c4ccc(F)cc4)c3)c2cc1OC [Ex 226] ?
Reply: > 1000 nM

Ask: Quick check: Kd of COc1cc2ncnc(Oc3cccc(NC(=O)Nc4cc(C(C)(C)C)nn4C4CCCCC4)c3)c2cc1OC [Ex 330] ?
Reply: > 1000 nM

Ask: Quick check: Kd of COc1cc2c(Oc3cccc(NC(=O)Nc4ccc(OC)c(C(F)(F)F)c4)c3)ncnc2cc1OCCN1CCOCC1 [Ex 250] ?
Reply: < 250 nM

Ask: Quick check: Kd of CCOc1cc2c(Oc3cccc(NC(=O)Nc4cc(C(C)(C)F)no4)c3)ncnc2cc1OC [Ex 392] ?
Reply: < 250 nM

Ask: Quick check: Kd of COc1cc2ncnc(Sc3cccc(NC(=O)Nc4cc(C5CC5)nn4-c4ccccc4)c3)c2cc1OC [Ex 354] ?
Reply: < 250 nM

Ask: Quick check: Kd of COc1ccc(-n2nc(C(C)C)cc2NC(=O)Nc2cccc(Sc3ncnc4cc(OC)c(OC)cc34)c2)cc1 [Ex 349] ?
Reply: > 1000 nM

Ask: Quick check: Kd of COc1cc2ncnc(Oc3cccc(NC(=O)Nc4cc(C(C)(C)C)nn4-c4ccc(C(F)(F)F)cc4)c3)c2cc1OC [Ex 373] ?
Reply: > 1000 nM

Ask: Quick check: Kd of CCOc1cc2ncnc(Sc3cccc(NC(=O)Nc4cc(C(C)(C)F)no4)c3)c2cc1OC [Ex 389] ?
Reply: < 250 nM

Ask: Quick check: Kd of COc1cc2ncnc(Oc3cccc(NC(=O)Nc4cc(C(C)(C)C)nn4-c4cccc(C(F)(F)F)c4)c3)c2cc1OC [Ex 379] ?
Reply: > 1000 nM

Ask: Quick check: Kd of COc1cc2ncnc(Oc3cccc(NC(=O)Nc4cc(C(C)(C)C)nn4-c4cccc(F)c4)c3)c2cc1OC [Ex 359] ?
Reply: > 1000 nM

Ask: Quick check: Kd of COCCOc1cc2ncnc(Oc3cccc(NC(=O)Nc4cc(C(C)C)on4)c3)c2cc1OC [Ex 206] ?
Reply: < 250 nM

Ask: Quick check: Kd of COc1cc2ncnc(Sc3cccc(NC(=O)Nc4cc(C(C)(C)C)nn4-c4ccc(Cl)cc4)c3)c2cc1OC [Ex 366] ?
Reply: > 1000 nM

Ask: Quick check: Kd of COc1cc2ncnc(Oc3cccc(NC(=O)Nc4cc(C(C)(F)F)nn4-c4cccnc4)c3)c2cc1OC [Ex 311] ?
Reply: < 250 nM

Ask: Quick check: Kd of CCOc1cc2ncnc(Sc3cccc(NC(=O)Nc4cc(C(C)(CF)CF)on4)c3)c2cc1OC [Example 388] ?
Reply: < 250 nM

Ask: Quick check: Kd of CCOC(=O)Cn1nc(C(C)(C)C)cc1NC(=O)Nc1cccc(Sc2ncnc3cc(OCCOC)c(OC)cc23)c1 [Ex 237] ?
Reply: > 1000 nM

---

- system-tested: RAF kinases (Homo sapiens, UniProt P04049)
- experiment: biochemical
pKd: −log10 of the molar value. Structures can show the parent of a compound that is named as a salt.
parameter-measured: pKd

Ask: Quick check: pKd of COCCOc1cc2ncnc(Oc3cccc(NC(=O)Nc4cccc(C(C)(C)C)c4)c3)c2cc1OC ?
Reply: 6.30 to 6.60

Ask: Quick check: pKd of COc1cc2ncnc(Sc3cccc(NC(=O)Nc4cc(C(C)(C)C)nn4-c4ccc(C#N)cc4)c3)c2cc1OC ?
Reply: 6.00 to 6.30

Ask: Quick check: pKd of COc1cc2ncnc(Oc3cccc(NC(=O)Nc4cc(C(C)(C)CO)no4)c3)c2cc1OC ?
Reply: 6.30 to 6.60

Ask: Quick check: pKd of COc1cc2ncnc(Sc3cccc(NC(=O)Nc4ccc(C(C)(C)C)cc4)c3)c2cc1OC ?
Reply: 6.30 to 6.60

Ask: Quick check: pKd of COc1cc2ncnc(Sc3cccc(NC(=O)Nc4cc(C(C)C)nn4-c4ccccc4)c3)c2cc1OC ?
Reply: 6.30 to 6.60

Ask: Quick check: pKd of COc1cc2ncnc(Oc3cccc(NC(=O)Nc4nccc(C(F)(F)F)n4)c3)c2cc1OC ?
Reply: 6.30 to 6.60

Ask: Quick check: pKd of COc1cc2ncnc(Oc3cccc(NC(=O)Nc4cc(C(C)(C)C)on4)c3)c2cc1OCCN1CCS(=O)(=O)CC1 ?
Reply: 6.30 to 6.60

Ask: Quick check: pKd of COc1cc2c(Oc3cccc(NC(=O)Nc4cc(C(C)(C)C)on4)c3)ncnc2cc1OCCCN1CCC(O)C1 (stereo not shown) ?
Reply: 6.30 to 6.60

Ask: Quick check: pKd of COc1cc2ncnc(Oc3cccc(NC(=O)Nc4cc(Cl)cc(C(F)(F)F)c4)c3)c2cc1OC ?
Reply: 6.00 to 6.30

Ask: Quick check: pKd of COc1cc2ncnc(Oc3cccc(NC(=O)Nc4cc(C(C)(C)C)nn4-c4cncc(F)c4)c3)c2cc1OC ?
Reply: 6.00 to 6.30

Ask: Quick check: pKd of COc1cc2ncnc(Oc3cccc(NC(=O)Nc4cnn(C(C)(C)C)c4)c3)c2cc1OC ?
Reply: 6.30 to 6.60

Ask: Quick check: pKd of COc1cc2ncnc(Oc3cccc(NC(=O)Nc4cc(C(C)(C)C)on4)c3)c2cc1OCCN1CCC(CO)CC1 ?
Reply: 6.00 to 6.30

Ask: Quick check: pKd of COc1cc2ncnc(Oc3cccc(NC(=O)Nc4cc(C(F)(F)F)ccc4Cl)c3)c2cc1OC ?
Reply: 6.30 to 6.60

Ask: Quick check: pKd of COCCOc1cc2ncnc(Oc3cccc(NC(=O)Nc4cc(C(C)(C)C)on4)c3)c2cc1OC [Ex 7, hydrochloride] ?
Reply: 6.30 to 6.60

Ask: Quick check: pKd of COc1cc2ncnc(Sc3cccc(NC(=O)Nc4cc(C(C)(C)C)on4)c3)c2cc1OCCCN1CCC(CO)CC1 ?
Reply: 6.00 to 6.30

Ask: Quick check: pKd of COc1cc2c(Sc3cccc(NC(=O)Nc4cc(C(C)(C)C)on4)c3)ncnc2cc1OCCCN1CCN(CCO)CC1 ?
Reply: 6.30 to 6.60
